# study_system: human TREM2/DAP12 fusion protein (human, UniProt O43914 41-113, limits assumed)
# Sequence (O43914 other isoform, or with tags, fused parts or gaps limits assumed): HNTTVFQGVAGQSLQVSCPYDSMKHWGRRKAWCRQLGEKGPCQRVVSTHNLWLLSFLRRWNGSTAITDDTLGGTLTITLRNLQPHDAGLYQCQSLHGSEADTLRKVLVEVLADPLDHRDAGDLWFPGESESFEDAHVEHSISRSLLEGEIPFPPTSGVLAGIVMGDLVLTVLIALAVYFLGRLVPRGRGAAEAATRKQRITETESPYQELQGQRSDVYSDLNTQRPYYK
# procedure_text: cell-based or functional assay
Listing of entries alongside the reported Luciferase activation plate bound 33 nM IgG, FOC.
measure_name: Luciferase activation plate bound 33 nM IgG, FOC (FOC)

# binder, value_measured
measured = [
    ("AL2p-33 (antibody, V domains shown, Fab and IgG formats under one id) VH: EVQLVQSGAEVKKPGSSVKVSCKASGYAFSSSWMNWVRQAPGQGLEWMGRIYPGDGDTNYAQKFQGRVTITADESTSTAYMELSSLRSEDTAVYYCARLLRNQPGESYAMDYWGQGTLVTVSS VL: GVVMAQTPLSLSVTPGQPASISCRTSQSLVHSNGYTYLHWYLQKPGQSPQLLIYKVSNRVSGVPDRFSGSGSGTDFTLKISRVEAEDVGVYYCSQSTRVPYTFGQGTKLEIK", 3.21),
    ("AL2p-29 (antibody, V domains shown, Fab and IgG formats under one id) VH: QVQLVQSGAEVKKPGSSVKVSCKASGYAFSSQWMNWVRQAPGQGLEWMGRIYPGDGDTNYAQKFQGRVTITADESTSTAYMELSSLRSEDTAVYYCARLLRNQPGESYAMDYWGQGTLVTVSS VL: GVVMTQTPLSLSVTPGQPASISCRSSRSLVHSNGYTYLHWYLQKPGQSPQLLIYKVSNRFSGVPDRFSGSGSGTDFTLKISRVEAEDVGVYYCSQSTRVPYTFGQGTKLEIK", 26.6),
    ("AL2p-14 (antibody, V domains shown, Fab and IgG formats under one id) VH: QVQLVQSGAEVKKPGSSVKVSCKASGYAFSSHWMNWVRQAPGQGLEWMGRIYPGDGDTNYAQKFQGRVTITADESTSTAYMELSSLRSEDTAVYYCARLLRNQPGESYAMDYWGQGTLVTVSS VL: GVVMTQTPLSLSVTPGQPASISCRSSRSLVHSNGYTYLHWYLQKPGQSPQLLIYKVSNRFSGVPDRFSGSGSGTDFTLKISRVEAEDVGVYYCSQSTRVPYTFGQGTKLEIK", 27.1),
    ("AL2p-5 (antibody, V domains shown, AL2p-h50 variant; Fab and IgG formats under one id; also called AL2-5) VH: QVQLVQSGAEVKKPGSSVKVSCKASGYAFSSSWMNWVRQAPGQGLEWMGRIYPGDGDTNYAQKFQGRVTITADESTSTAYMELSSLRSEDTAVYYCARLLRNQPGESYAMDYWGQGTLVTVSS VL: DVVMTQTPLSLSVTPGQPASISCRSSQSLVHSNRYTYLHWYLQKPGQSPQLLIYKVSNRFSGVPDRFSGSGSGTDFTLKISRVEAEDVGVYYCSQSTRVPYTFGQGTKLEIK", 9.99),
    ("AL2p-15 (antibody, V domains shown, Fab and IgG formats under one id) VH: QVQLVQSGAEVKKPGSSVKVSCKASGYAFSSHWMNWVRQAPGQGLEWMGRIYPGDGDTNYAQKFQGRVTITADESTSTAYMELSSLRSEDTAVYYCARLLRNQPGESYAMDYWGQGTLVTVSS VL: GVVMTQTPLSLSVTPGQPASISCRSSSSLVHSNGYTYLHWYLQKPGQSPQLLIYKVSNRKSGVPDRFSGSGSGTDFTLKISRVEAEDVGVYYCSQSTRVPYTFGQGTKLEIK", 7.54),
]
